tested on: Malme-3M; assay: NCI tumour cell line growth inhibition, 48 h
The source made the active and inactive calls. Rule as the data show it: active = GI50 up to about 1.1 µM and inactive = higher. Where a SMILES comes first, the peptide text is derived from it. The star is where a group is joined. Boc = CC(C)(C)OC(=O)*
metric: GI50

Solved cases below.
{"compound": "O=C1CSC(c2cccc(Oc3ccccc3)c2)N1c1cccc(Cl)c1Cl (stereo unspecified)", "system.under.test": "Malme-3M", "reading": "30.4 µM (inactive)"}
{"compound": "CC(C)(C)OC(=O)NC(Cc1ccccc1)C(=O)N1CCCC1C(N)=O (stereo not drawn) (Boc-Phe-Pro-NH2; configuration not given here)", "system.under.test": "Malme-3M", "reading": "> 100 µM (inactive)"}

Below are 4 compounds. Give each one its GI50.
1. Cc1c(O)c(OC2OC(CO)C(O)C(O)C2O)cc2c1CC[C@@H]1C2(C)C(=O)C[C@]2(C)[C@@H]([C@@](C)(O)C(=O)CCC(C)(C)O)[C@H](O)C[C@@]12C (stereo partly specified)
2. COC(=O)c1ccccc1/C=C1\Cc2ccc(C)c(C)c2C1=O
3. CCOC(=O)Cc1c(C)c2cc(C(=O)c3ccccc3)c(O)cc2oc1=O
4. c1nc(NCCc2c[nH]cn2)c2nc[nH]c2n1

Result:
> 100 µM (inactive)
> 100 µM (inactive)
25.4 µM (inactive)
> 100 µM (inactive)
